Listed next: entries and their corresponding M. pneumoniae count in time-kill curve.
- Test system: Mycoplasma pneumoniae strain M129 (ATCC 29342)
- MEASUREMENT_DESCRIPTION: Time-kill curves
- Assay type: cell-based
- Parameters: unit not given here
- MEASUREMENT_CONDITIONS: 4×MIC; time 48
- Protocol: […] The tubes were incubated at 37°C in 5% CO2 for 72 h, and 200 µL of the culture was removed every 12 h for 10-fold serial dilutions. The diluted cultures were plated on plates for further culture and counted after 7 d. […]
Give the value as a plain number.

Solved entries (count: 3):
Notebook: C=C[C@]1(C)C[C@@H](OC(=O)CSCCN(CC)CC)[C@]2(C)[C@H](C)CC[C@]3(CCC(=O)[C@H]32)[C@@H](C)[C@@H]1O [tiamulin, Tiamulin, reference compound] , M. pneumoniae count in time-kill curve read as 3.684

Notebook: "CC[C@H]1OC(=O)[C@H](C)[C@@H](O[C@H]2C[C@@](C)(OC)[C@@H](O)[C@H](C)O2)[C@H](C)[C@@H](O[C@@H]2O[C@H](C)C[C@H](N(C)C)[C@H]2O)[C@](C)(O)C[C@@H](C)C(=O)[C@H](C)[C@@H](O)[C@]1(C)O" , M. pneumoniae count in time-kill curve read as 3.916

Notebook: "CN(C)[C@@H]1C(O)=C(C(N)=O)C(=O)[C@@]2(O)C(O)=C3C(=O)c4c(O)cccc4[C@@](C)(O)[C@H]3C[C@@H]12" , M. pneumoniae count in time-kill curve read as 3.523

New cases:
Notebook: C=CC1(C)CC(OC(=O)CSc2ccc(NC(=O)Cc3ccc([N+](=O)[O-])cc3)cc2)C2(C)C(C)CCC3(CCC(=O)C32)C(C)C1O (centres unmarked) [compound 16C] , M. pneumoniae count in time-kill curve read as 5.628

Notebook: "O=C(O)c1cn(C2CC2)c2cc(N3CCNCC3)c(F)cc2c1=O" , M. pneumoniae count in time-kill curve read as 5.137

###

- System: Mycoplasma pneumoniae strain M129 (ATCC 29342)
- MEASUREMENT_DESCRIPTION: Time-kill curves
- Type: cell-based
- Parameters: unit not given here
- MEASUREMENT_CONDITIONS: 16×MIC; time 72
OBSERVED_PROPERTY: M. pneumoniae count in time-kill curve
Give the value as a plain number.

Recorded M. pneumoniae count in time-kill curve for "CN(C)[C@@H]1C(O)=C(C(N)=O)C(=O)[C@@]2(O)C(O)=C3C(=O)c4c(O)cccc4[C@@](C)(O)[C@H]3C[C@@H]12" on Mycoplasma pneumoniae strain M129 (ATCC 29342) was 3.031

New cases:
Recorded M. pneumoniae count in time-kill curve for "O=C(O)c1cn(C2CC2)c2cc(N3CCNCC3)c(F)cc2c1=O" on Mycoplasma pneumoniae strain M129 (ATCC 29342) was 3.354

Recorded M. pneumoniae count in time-kill curve for C=CC1(C)CC(OC(=O)CSc2ccc(NC(=O)Cc3ccc([N+](=O)[O-])cc3)cc2)C2(C)C(C)CCC3(CCC(=O)C32)C(C)C1O (centres unmarked) [compound 16C] on Mycoplasma pneumoniae strain M129 (ATCC 29342) was 2.848

Recorded M. pneumoniae count in time-kill curve for C=C[C@]1(C)C[C@@H](OC(=O)CSCCN(CC)CC)[C@]2(C)[C@H](C)CC[C@]3(CCC(=O)[C@H]32)[C@@H](C)[C@@H]1O [tiamulin, Tiamulin, reference compound] on Mycoplasma pneumoniae strain M129 (ATCC 29342) was 3.801

Recorded M. pneumoniae count in time-kill curve for "CC[C@H]1OC(=O)[C@H](C)[C@@H](O[C@H]2C[C@@](C)(OC)[C@@H](O)[C@H](C)O2)[C@H](C)[C@@H](O[C@@H]2O[C@H](C)C[C@H](N(C)C)[C@H]2O)[C@](C)(O)C[C@@H](C)C(=O)[C@H](C)[C@@H](O)[C@]1(C)O" on Mycoplasma pneumoniae strain M129 (ATCC 29342) was 3.438

###

- Test system: Mycoplasma pneumoniae strain M129 (ATCC 29342)
- MEASUREMENT_DESCRIPTION: Time-kill curves
- Assay type: cell-based
- Design: unit not given here
- MEASUREMENT_CONDITIONS: 32×MIC; time 0
- Procedure: […] The tubes were incubated at 37°C in 5% CO2 for 72 h, and 200 µL of the culture was removed every 12 h for 10-fold serial dilutions. The diluted cultures were plated on plates for further culture and counted after 7 d. […]
OBSERVED_PROPERTY: M. pneumoniae count in time-kill curve
Give the value as a plain number.

Recorded M. pneumoniae count in time-kill curve for CN(C)[C@@H]1C(O)=C(C(N)=O)C(=O)[C@@]2(O)C(O)=C3C(=O)c4c(O)cccc4[C@@](C)(O)[C@H]3C[C@@H]12 [tetracycline] on Mycoplasma pneumoniae strain M129 (ATCC 29342) was 6.522

Recorded M. pneumoniae count in time-kill curve for O=C(O)c1cn(C2CC2)c2cc(N3CCNCC3)c(F)cc2c1=O [ciprofloxacin] on Mycoplasma pneumoniae strain M129 (ATCC 29342) was 7.07

Turning now to a further record.
Recorded M. pneumoniae count in time-kill curve for C=CC1(C)CC(OC(=O)CSc2ccc(NC(=O)Cc3ccc([N+](=O)[O-])cc3)cc2)C2(C)C(C)CCC3(CCC(=O)C32)C(C)C1O (stereo not drawn) [compound 16C] on Mycoplasma pneumoniae strain M129 (ATCC 29342) was 7.065

###

- Tested on: Mycoplasma pneumoniae strain M129 (ATCC 29342)
- MEASUREMENT_DESCRIPTION: Time-kill curves
- Format: cell-based
- Design: unit not given here
- MEASUREMENT_CONDITIONS: 1×MIC; time 36
- Procedure: […] The tubes were incubated at 37°C in 5% CO2 for 72 h, and 200 µL of the culture was removed every 12 h for 10-fold serial dilutions. The diluted cultures were plated on plates for further culture and counted after 7 d. […]
Listed next: entries and their corresponding M. pneumoniae count in time-kill curve.
Give the value as a plain number.

Solved entries (count: 4):
Notebook: CN(C)[C@@H]1C(O)=C(C(N)=O)C(=O)[C@@]2(O)C(O)=C3C(=O)c4c(O)cccc4[C@@](C)(O)[C@H]3C[C@@H]12 [tetracycline] , M. pneumoniae count in time-kill curve read as 5.0751

Notebook: CC[C@H]1OC(=O)[C@H](C)[C@@H](O[C@H]2C[C@@](C)(OC)[C@@H](O)[C@H](C)O2)[C@H](C)[C@@H](O[C@@H]2O[C@H](C)C[C@H](N(C)C)[C@H]2O)[C@](C)(O)C[C@@H](C)C(=O)[C@H](C)[C@@H](O)[C@]1(C)O [erythromycin] , M. pneumoniae count in time-kill curve read as 5.109

Notebook: C=CC1(C)CC(OC(=O)CSc2ccc(NC(=O)Cc3ccc([N+](=O)[O-])cc3)cc2)C2(C)C(C)CCC3(CCC(=O)C32)C(C)C1O (centres unmarked) [compound 16C] , M. pneumoniae count in time-kill curve read as 6.341

Notebook: C=C[C@]1(C)C[C@@H](OC(=O)CSCCN(CC)CC)[C@]2(C)[C@H](C)CC[C@]3(CCC(=O)[C@H]32)[C@@H](C)[C@@H]1O [tiamulin, Tiamulin, reference compound] , M. pneumoniae count in time-kill curve read as 5.423

Turning now to a further record.
Notebook: O=C(O)c1cn(C2CC2)c2cc(N3CCNCC3)c(F)cc2c1=O [ciprofloxacin] , M. pneumoniae count in time-kill curve read as 6.137

###

- Test system: Mycoplasma pneumoniae strain M129 (ATCC 29342)
- MEASUREMENT_DESCRIPTION: Time-kill curves
- Assay type: cell-based
- Set-up: unit not given here
- MEASUREMENT_CONDITIONS: 32×MIC; time 24
OBSERVED_PROPERTY: M. pneumoniae count in time-kill curve
Give the value as a plain number.

Notebook: C=C[C@]1(C)C[C@@H](OC(=O)CSCCN(CC)CC)[C@]2(C)[C@H](C)CC[C@]3(CCC(=O)[C@H]32)[C@@H](C)[C@@H]1O [tiamulin, Tiamulin, reference compound] , M. pneumoniae count in time-kill curve read as 5.262

Notebook: C=CC1(C)CC(OC(=O)CSc2ccc(NC(=O)Cc3ccc([N+](=O)[O-])cc3)cc2)C2(C)C(C)CCC3(CCC(=O)C32)C(C)C1O (centres unmarked) [compound 16C] , M. pneumoniae count in time-kill curve read as 6.583

Notebook: "CN(C)[C@@H]1C(O)=C(C(N)=O)C(=O)[C@@]2(O)C(O)=C3C(=O)c4c(O)cccc4[C@@](C)(O)[C@H]3C[C@@H]12" , M. pneumoniae count in time-kill curve read as 4.038

Notebook: "CC[C@H]1OC(=O)[C@H](C)[C@@H](O[C@H]2C[C@@](C)(OC)[C@@H](O)[C@H](C)O2)[C@H](C)[C@@H](O[C@@H]2O[C@H](C)C[C@H](N(C)C)[C@H]2O)[C@](C)(O)C[C@@H](C)C(=O)[C@H](C)[C@@H](O)[C@]1(C)O" , M. pneumoniae count in time-kill curve read as 5.307

Notebook: "O=C(O)c1cn(C2CC2)c2cc(N3CCNCC3)c(F)cc2c1=O" , M. pneumoniae count in time-kill curve read as 4.119
